# assayed_system: LMPTP-A (Low Molecular Weight Protein Tyrosine Phosphatase-A) enzyme (Homo sapiens (Human), UniProt P24666)
# Sequence (P24666 whole entry): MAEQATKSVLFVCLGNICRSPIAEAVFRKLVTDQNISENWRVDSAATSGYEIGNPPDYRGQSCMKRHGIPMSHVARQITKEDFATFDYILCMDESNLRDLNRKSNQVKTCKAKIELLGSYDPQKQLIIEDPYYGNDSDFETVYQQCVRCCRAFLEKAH
# assay_summary: LMPTP primary screening / LMPTP (OMFP) enzyme inhibition assay, fluorescence intensity
# Type: biochemical
# condition_parameters: LMPTP-A, OMFP substrate, method of Example 2; read-out: IC50
pIC50: −log10 of the molar value.
measurement_kind: pIC50

# annotated cases, reported pIC50 shown
>>> df
                                   compound        result
0  CC(C)C(=O)Nc1ccc(-c2cc(NCCCN3CCCCC3)c3ccccc3n2)cc1  5.30 to 6.10
1  CCN(CC)S(=O)(=O)c1ccc(-c2cc(NCCCN3CCCCC3)c3ccccc3n2)cc1  5.30 to 6.10
2  Fc1ccc(-c2cc(NCCCN3CCCCC3)c3ccccc3n2)c(C(F)(F)F)c1  5.30 to 6.10

Give the value of pIC50 reported for the following: FC(F)(F)c1ccc(C(F)(F)F)c(-c2cc(Nc3cccc(CC4CCNCC4)c3)c3ccccc3n2)c1 5.30 to 6.10

For the compound CN(C)Cc1cc(CO)cc(Nc2cc(-c3cccc(Cl)c3)nc3ccccc23)c1 [Compound I13] , give its reported pIC50. 5.30 to 6.10
